Origin of values: patent US20200115416A1

Measured inverse agonist, % change from basal cAMP at 100 µM by item
Target: mouse melanocortin-5 receptor (mouse, UniProt P41149 1-325)
Sequence (P41149 whole entry): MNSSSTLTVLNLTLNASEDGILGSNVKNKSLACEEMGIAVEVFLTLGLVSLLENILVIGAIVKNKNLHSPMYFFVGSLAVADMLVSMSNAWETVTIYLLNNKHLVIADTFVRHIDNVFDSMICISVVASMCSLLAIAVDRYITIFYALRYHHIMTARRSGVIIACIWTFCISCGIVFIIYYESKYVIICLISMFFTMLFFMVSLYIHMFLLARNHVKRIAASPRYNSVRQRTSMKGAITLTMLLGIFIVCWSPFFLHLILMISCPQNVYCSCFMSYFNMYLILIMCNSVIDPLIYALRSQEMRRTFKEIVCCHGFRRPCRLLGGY
Experiment: cell-based or functional assay
Square brackets hold non-standard residues; d marks the D form. Nle = CCCC[C@H](N)C(=O)O
value kind: inverse agonist, % change from basal cAMP at 100 µM (%)

binder	value units	reported measurement
cyclo(PRFFNAD[dP]) (SMILES C[C@@H]1NC(=O)[C@H](CC(N)=O)NC(=O)[C@H](Cc2ccccc2)NC(=O)[C@H](Cc2ccccc2)NC(=O)[C@H](CCCNC(=N)N)NC(=O)[C@@H]2CCCN2C(=O)[C@H]2CCCN2C(=O)[C@H](CC(=O)O)NC1=O) [c[Pro-Arg-Phe-Phe-Asn-Ala-Asp-DPro]]	%	-25
cyclo(PRFFNAG[dP]) [c[Pro-Arg-Phe-Phe-Asn-Ala-Gly-DPro]]	%	-25
cyclo(PRFFNA[Nle][dP]) [c[Pro-Arg-Phe-Phe-Asn-Ala-Nle-DPro]]	%	-35
cyclo(PRFFNAS[dP]) [c[Pro-Arg-Phe-Phe-Asn-Ala-Ser-DPro]]	%	-55
cyclo(PRFFNAK[dP]) [c[Pro-Arg-Phe-Phe-Asn-Ala-Lys-DPro]]	%	-40
cyclo(PRFFNAY[dP]) [c[Pro-Arg-Phe-Phe-Asn-Ala-Tyr-DPro]]	%	-40
cyclo(PRFFNAL[dP]) [c[Pro-Arg-Phe-Phe-Asn-Ala-Leu-DPro]]	%	-35
